Data provenance is paper PMC2680598.

target: UniProt:P9WNG3; assay: mtFabH inhibition assay; type: biochemical; conditions: N/A = no inhibition observed at 200 µg/ml; read-out: mtFabH IC50 (class N/A)
Sequence (P9WNG3 2-335): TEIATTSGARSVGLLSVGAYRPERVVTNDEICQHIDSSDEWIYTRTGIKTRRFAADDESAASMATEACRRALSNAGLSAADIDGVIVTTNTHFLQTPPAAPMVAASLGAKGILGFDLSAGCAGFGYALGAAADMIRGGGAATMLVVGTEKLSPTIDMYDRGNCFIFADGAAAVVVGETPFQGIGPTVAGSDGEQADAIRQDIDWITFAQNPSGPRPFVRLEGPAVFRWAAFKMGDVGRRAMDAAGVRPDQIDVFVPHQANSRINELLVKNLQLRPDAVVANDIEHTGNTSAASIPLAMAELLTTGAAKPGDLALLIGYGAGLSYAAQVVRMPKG
metric: IC50

Answered cases to consult:
smiles_input=O=C(CBr)Nc1nc(C(=O)O)c(-c2cccc(Cl)c2)s1 measured_value="> 532 µM"
smiles_input=O=C(CBr)Nc1nc(C(=O)O)c(-c2ccccc2)s1 measured_value="> 586 µM"
smiles_input=COC(=O)c1nc(N)sc1C measured_value="> 1160 µM"
smiles_input=COC(=O)c1nc(N)sc1-c1cccc(Cl)c1 measured_value="> 744 µM"
smiles_input=Nc1nc(C(=O)O)c(-c2cccc(Cl)c2)s1 measured_value="> 785 µM"

Query string: Need IC50, item Cc1sc(NC(=O)CBr)nc1C(=O)O
Result string: > 717 µM

Query string: Need IC50, item COC(=O)c1nc(N)sc1Cc1ccccc1
Result string: > 805 µM

Query string: Need IC50, item COC(=O)c1nc(N)sc1-c1ccccc1
Result string: > 854 µM
